The reported measurements were obtained from paper PMC10006238.

Biological target: VirD (Streptomyces virginiae)
Assay: other fluorescence titration; tryptophan fluorescence quenching; VirC, VirD, VirD mutant or VirE at 5 μM in TE buffer (20 mM Tris-HCl pH 8.5, 2 mM EDTA), 25 °C, titrated with ACP ligand (0–150 μM); excitation 295 nm; one site-specific binding model; averaged data of two independent measurements
Hi! Could you tag entries with Kd below 50 µM as rule met, and those at or above as rule not met? Much appreciated.

| binder | class.name |
| --- | --- |
| apo-ACP5a L6764N (domain or fragment) GPGSAGRQEEIAEEVARLLAGVLYLEPDRLDPEETFNTLGVDSILGVEFVAAVNAAYPVGVKATALYDHPTPAAFARHIAESLGA | rule not met |
| apo-ACP5b (domain or fragment) GPGSAVAVDPAPVARALREELARTLYCEPGDIDDEASFNTLGLDSILGVEFVAFVNQTYGLDEKAGILYDHPSLAALSRHVAGRAAPV | rule not met |
| HMG-ACP5b (domain or fragment, HMG form ((RS)-3-hydroxy-3-methylglutarate as substrate mimic on the phosphopantetheine)) GPGSAVAVDPAPVARALREELARTLYCEPGDIDDEASFNTLGLDSILGVEFVAFVNQTYGLDEKAGILYDHPSLAALSRHVAGRAAPV | rule met |
| holo-ACP5a E6761A/L6764N (domain or fragment, phosphopantetheine (holo form)) GPGSAGRQEEIAEEVARLLAGVLYLEPDRLDPEATFNTLGVDSILGVEFVAAVNAAYPVGVKATALYDHPTPAAFARHIAESLGA | rule met |
| apo-ACP5a E6761A/L6764N (domain or fragment) GPGSAGRQEEIAEEVARLLAGVLYLEPDRLDPEATFNTLGVDSILGVEFVAAVNAAYPVGVKATALYDHPTPAAFARHIAESLGA | rule not met |

Ask: Given the entry holo-ACP5b (domain or fragment, phosphopantetheine (Ppant) on S6871) GPGSAVAVDPAPVARALREELARTLYCEPGDIDDEASFNTLGLDSILGVEFVAFVNQTYGLDEKAGILYDHPSLAALSRHVAGRAAPV , would its reported Kd be below 50 µM?
Reply: rule met

Ask: I'd appreciate it if you could check whether apo-ACP5a E6761A (domain or fragment) GPGSAGRQEEIAEEVARLLAGVLYLEPDRLDPEATFLTLGVDSILGVEFVAAVNAAYPVGVKATALYDHPTPAAFARHIAESLGA has Kd smaller than 50 µM.
Reply: rule not met

Ask: Problem: For the binder holo-ACP5a E6761A (domain or fragment, phosphopantetheine (holo form)) GPGSAGRQEEIAEEVARLLAGVLYLEPDRLDPEATFLTLGVDSILGVEFVAAVNAAYPVGVKATALYDHPTPAAFARHIAESLGA , is Kd under 50 µM?
Reply: rule met
